Test: Terminal Half life in Wistar rat at 80 mg/kg, iv after 0.05 to 24 hrs by HPLC-MS/MS analysis
Type: ADME, organism-based
Conditions: Wistar, in vivo, read-out: beta t1/2 (converted)
propertyMeasured: half-life (h)
Answers are plain numbers, in h.

O=c1[nH]cc(F)c(=O)[nH]1 : 2.35
CC(C)C[C@H](NC(=O)[C@@H](O)[C@H](N)Cc1ccccc1)C(=O)O : 3.4

Q. Given the compound `CC(C)C[C@H](NC(=O)[C@@H](O)[C@H](N)Cc1ccccc1)C(=O)NCC(=O)O.Cl` , what is its reported half-life?
A. 1.23

---

Molecular target: Aminopeptidase N (Sus scrofa, UniProt P15145)
Sequence (P15145 whole entry): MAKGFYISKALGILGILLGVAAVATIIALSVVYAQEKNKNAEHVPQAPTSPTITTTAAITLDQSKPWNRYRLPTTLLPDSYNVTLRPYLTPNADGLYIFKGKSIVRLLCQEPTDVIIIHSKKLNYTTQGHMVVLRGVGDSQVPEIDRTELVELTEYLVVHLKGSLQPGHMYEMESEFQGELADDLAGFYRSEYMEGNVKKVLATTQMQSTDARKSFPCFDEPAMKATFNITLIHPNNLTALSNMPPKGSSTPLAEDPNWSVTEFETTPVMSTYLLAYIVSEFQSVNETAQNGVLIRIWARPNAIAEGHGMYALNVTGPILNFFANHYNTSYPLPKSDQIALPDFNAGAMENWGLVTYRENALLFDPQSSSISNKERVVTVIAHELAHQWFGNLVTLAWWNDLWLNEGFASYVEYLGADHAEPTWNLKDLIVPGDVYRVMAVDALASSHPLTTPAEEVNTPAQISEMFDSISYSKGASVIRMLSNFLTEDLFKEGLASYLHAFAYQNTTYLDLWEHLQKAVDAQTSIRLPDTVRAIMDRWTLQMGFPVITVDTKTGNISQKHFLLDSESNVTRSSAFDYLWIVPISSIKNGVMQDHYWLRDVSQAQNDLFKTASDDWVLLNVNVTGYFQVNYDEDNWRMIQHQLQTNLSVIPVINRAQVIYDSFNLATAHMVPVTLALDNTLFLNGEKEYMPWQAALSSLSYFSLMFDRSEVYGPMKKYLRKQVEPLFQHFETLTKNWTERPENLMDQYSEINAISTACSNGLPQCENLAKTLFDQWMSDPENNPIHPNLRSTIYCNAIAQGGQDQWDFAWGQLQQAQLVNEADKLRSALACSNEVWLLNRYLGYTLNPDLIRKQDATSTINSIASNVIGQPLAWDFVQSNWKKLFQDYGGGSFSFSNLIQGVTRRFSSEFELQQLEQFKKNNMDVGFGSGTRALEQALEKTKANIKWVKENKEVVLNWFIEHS
propertyMeasured: IC50 (nM)
Give bare numbers, in nM.

CC(C)C[C@H](NC(=O)[C@@H](O)[C@H](N)Cc1ccccc1)C(=O)OCn1cc(F)c(=O)[nH]c1=O : 3180

Consider the record given below.
Q. Quick check: IC50 on Aminopeptidase N (Sus scrofa, UniProt P15145), item `CC(C)C[C@H](NC(=O)[C@@H](O)[C@H](N)Cc1ccccc1)C(=O)NCC(=O)OCn1cc(F)c(=O)[nH]c1=O.Cl` ?
A. 180
